# assay_comment: Toxicity against Artemia salina
# Assay type: organism-based
# assay_setup: in vivo
measured_quantity: LC50 (µg/mL)
Give the quantity in µg/mL, number only.

Requested field: LC50. Item: CC1(C)CCC[C@]2(C)[C@H]3C=C4C=C(O)C(=O)C=C4O[C@@]3(C)CC[C@@H]12
20
